Tested on: PC-3 prostate
Assay: NCI-60 one-dose screen, 48 h (100 = growth as untreated, 0 = no growth, -100 = all killed)
Conditions: 10 µM unless noted
This is part of a sample that, as a whole, favours compounds with a hit. Of some 83,000 tested, about 20% had one in any assay.

compound | target-system | growth [%]
C=CC(COC(c1ccccc1)(c1ccccc1)c1ccccc1)N(CC)CC (configuration not stated) | PC-3 prostate | 47.9
CC/C=C\C[C@H]1C/C=C2/C(=O)C=C[C@H]2C/C=C\CCCC(=O)O1 | PC-3 prostate | 36
c1ccc(CCNc2ncnc3[nH]ncc23)cc1 | PC-3 prostate | 67
O=S(=O)(Nc1ccc(NS(=O)(=O)c2ccccc2)c(Cl)c1)c1ccccc1 | PC-3 prostate | 88.7
COc1ccc(Nc2cc(C)nc(N3CCN(c4ccnc5cc(Cl)ccc45)CC3)n2)cc1 | PC-3 prostate | 33
Cc1nn(-c2cc(=O)[nH]c3ccc(Cl)cc23)c(N)c1C#N | PC-3 prostate | 95.6
CC/C=C\C[C@H](O)C/C=C1/C(=O)C=C[C@@]1(C)C/C=C\CCCC(=O)OC | PC-3 prostate | 96.1
CCOc1cc2ncc(C#N)c(Nc3ccc(OCc4cccc(F)c4)c(Cl)c3)c2cc1NC(=O)CCCCC1CCSS1 (configuration not stated) | PC-3 prostate | 83.9
COc1ccc(-c2nc3ccc(-c4nc5ccc(N6CCN(c7ccncc7)CC6)cc5[nH]4)cc3[nH]2)cc1OC | PC-3 prostate | 54.8
Nc1nc2ccc3[nH]ncc3c2c2c1CCCC2 | PC-3 prostate | 3.35
Cc1nc(Nc2ccc(F)c(Cl)c2)sc1C(=O)O | PC-3 prostate | 7.92
C=C1C(=O)O[C@H]2[C@H]1CC/C(COC(=O)NCc1ccc(OC)c(OC)c1)=C\CC[C@@]1(C)O[C@@H]21 | PC-3 prostate | 78.4
CC(=O)O[C@H]1C(=O)[C@@]2(C)[C@H]([C@H](OC(=O)c3ccccc3)[C@]3(O)C[C@H](OC(=O)[C@H](OC(=O)CCC(=O)OC4CCC(S/N=C(N)/N=C(\N)N(C)C)CC4)[C@@H](NC(=O)c4ccccc4)c4ccccc4)C(C)=C1C3(C)C)[C@]1(OC(C)=O)CO[C@@H]1C[C@@H]2O (some centres not stated) | PC-3 prostate | 28.4
Cc1cc(N2CCCC2)nc(NC2CCCC(Nc3ccnc4cc(Cl)ccc34)C2)n1 (configuration not stated) | PC-3 prostate | -58.1
COc1ccc2c(c1)CC/C(=C\c1cncc(Br)c1)C2=O | PC-3 prostate | 92.7
Cc1nn(-c2cc(=O)[nH]c3ccccc23)c(N)c1C#N | PC-3 prostate | 96
CC[C@]1(O)C[C@@H]2CN(CCc3c([nH]c4ccccc34)[C@@](C(=O)OC)(c3cc4c(cc3OC)N(C)[C@H]3[C@@](O)(C(N)=O)[C@H](O)[C@]5(CC)[C@@H]6C[C@@H]6CN6CC[C@]43[C@@H]65)C2)C1 | PC-3 prostate | 20.7

----------
System: CAKI-1 renal
Assay: NCI-60 one-dose screen, 48 h (100 = growth as untreated, 0 = no growth, -100 = all killed)
Conditions: 10 µM unless noted
About 83,000 compounds went through this panel and 20% of them were active in at least one assay; those are over-represented in the sample as a whole. Active and inactive are the calls of the source. The calls were made as follows: active = growth percent below 10; inactive = the rest.

compound | target-system | growth
O=[N+]([O-])c1ccccc1/C=N\NC(=S)N/N=C/c1ccccc1[N+](=O)[O-] | CAKI-1 renal | 42.2% (inactive)
COc1cc2c(cc1-c1c(C)noc1C)ncc1nc(C3CCOCC3)n([C@H](C)COC(F)F)c12 | CAKI-1 renal | 26.7% (inactive)
c1csc(C2=NN3C(C2)c2ccccc2OC3c2ccncc2)c1 (stereo unspecified) | CAKI-1 renal | 78.2% (inactive)
NS(=O)(=O)c1ccc(CN=C2NC(=O)S/C2=C\c2ccc(Br)cc2)cc1 | CAKI-1 renal | 100% (inactive)
CC[C@H]1OC(=O)[C@H](C)[C@@H](O[C@H]2C[C@@](C)(OC)[C@@H](O)[C@H](C)O2)[C@H](C)[C@@H](O[C@@H]2O[C@H](C)C[C@H](N(C)C)[C@H]2O)[C@](C)(O)C[C@H](C)CN(C)[C@H](C)[C@@H](O)[C@]1(C)O | CAKI-1 renal | 96.6% (inactive)
COc1cc(C(=O)/C=C/c2cccnc2Nc2ccc(Cl)cc2)cc(OC)c1OC | CAKI-1 renal | -6.13% (active)
CC/C=C\C[C@H]1C/C=C2/C(=O)C=C[C@H]2C/C=C\CCCC(=O)O1 | CAKI-1 renal | 25.2% (inactive)
CN(C)S(=O)(=O)c1ccc(S(=O)(=O)Nc2cccc(Cl)c2N2CCCCC2)cc1 | CAKI-1 renal | 31.6% (inactive)
CC1=C[C@H]2c3c(c(O)c(O)c4oc5c(C)cccc5c(=O)c34)[C@H](c3cc(O)c(O)c4oc5c(C)cccc5c(=O)c34)[C@H]2C(C)(C)C1 | CAKI-1 renal | 12.5% (inactive)
Cc1c(/C=C/[N+](=O)[O-])ccc2c1[nH]c1ccccc12 | CAKI-1 renal | 102% (inactive)
O=C(Nc1cccc2[nH]c(C(F)(F)F)nc12)c1ccc(-n2cnnn2)cc1 | CAKI-1 renal | 95.4% (inactive)
CN1CCN(CCCOc2cccc3nc(Nc4cc(Cl)cc(Cl)c4)ccc23)CC1 | CAKI-1 renal | 30.7% (inactive)
CC(C)c1c(C(=O)c2ccccc2)c(-c2ccccc2)c(-c2ccc(F)cc2)n1CC[C@@H](O)C[C@@H](O)CC(=O)O | CAKI-1 renal | 21.6% (inactive)
CC[C@@H](C(=O)[C@@H](C)[C@@H](O)[C@H](C)[C@@H]1O[C@@H]([C@@H](CC)C(=O)O)CC[C@@H]1C)[C@H]1OC2(C=C[C@@H](O)[C@]3(CC[C@@](C)([C@H]4CC[C@](O)(CC)[C@H](C)O4)O3)O2)[C@H](C)C[C@@H]1C (stereo partly specified) | CAKI-1 renal | 18.2% (inactive)
Cn1ccnc1C(=O)/C=C/c1ccccc1 | CAKI-1 renal | 11.7% (inactive)
Cn1c(NCCc2ccc(O)c(O)c2)nc2c1c(=O)n(Cc1ccc(Br)cc1)c(=O)n2C | CAKI-1 renal | 74.7% (inactive)
O=C1c2cc3c(cc2-c2c1c1ccc(F)cc1c(=O)n2CCCNCCO)OCO3 | CAKI-1 renal | -7.53% (active)
COc1ccc(C(=O)COc2cccc(/C=C3\CSc4ccccc4C3=O)c2)cc1 | CAKI-1 renal | -47.9% (active)
CC(=O)O[C@H]1C(=O)[C@@]2(C)[C@H]([C@H](OC(=O)c3ccccc3)[C@]3(O)C[C@H](OC(=O)[C@H](OC(=O)CCC(=O)OC4CCC(S/N=C(N)/N=C(\N)N(C)C)CC4)[C@@H](NC(=O)c4ccccc4)c4ccccc4)C(C)=C1C3(C)C)[C@]1(OC(C)=O)CO[C@@H]1C[C@@H]2O (stereo partly specified) | CAKI-1 renal | 25.5% (inactive)
CCOc1cc2ncc(C#N)c(Nc3ccc(OCc4cccc(F)c4)c(Cl)c3)c2cc1NC(=O)CCCCC1CCSS1 (stereo unspecified) | CAKI-1 renal | 72% (inactive)
CCCCCCN(CCCCCC)CCC(O)c1ccc2ccccc2c1 (stereo unspecified) | CAKI-1 renal | 53% (inactive)
CC1=C/C(=C(\c2ccc(N(C)C)cc2)c2ccc([N+](C)(C)C)cc2)C=CC1=[N+](C)C | CAKI-1 renal | 99.2% (inactive)
CN(Cc1cc(Cl)cc(Cl)c1O)Cc1cc(Cl)cc(Cl)c1O | CAKI-1 renal | 42.9% (inactive)
N#Cc1c(-c2ccc(Cl)cc2)nc(N=Nc2c(O)[nH]c3ccc(Cl)cc23)nc1N1CCOCC1 | CAKI-1 renal | 85.2% (inactive)
COc1ccc(Nc2cc(C)nc(N3CCN(c4ccnc5cc(Cl)ccc45)CC3)n2)cc1 | CAKI-1 renal | 35.1% (inactive)
COc1ccc(-n2nc(C)c3c(Oc4ccc(NC(=O)Nc5c(Cl)cccc5Cl)cc4)ncnc32)cc1 | CAKI-1 renal | 95.3% (inactive)
CCc1nnc(CNc2ccc(Cl)cc2)o1 | CAKI-1 renal | 89.9% (inactive)
Cc1ccc(-c2onc3c(=O)[nH]nc(-c4ccccc4)c23)cc1 | CAKI-1 renal | 33.9% (inactive)
CCCCC/C(C=C(C#N)C#N)=C/c1ccccc1 | CAKI-1 renal | 81.4% (inactive)
C=C1c2nc3ccccc3n2C=C(c2cccc(Cl)c2)N1Cc1ccc(OC)cc1 | CAKI-1 renal | 3.02% (active)
c1ccc(-c2c(-c3ccccc3)[n+](Cc3ccc4ccccc4c3)c(-c3ccc(-c4nc5ccccc5s4)cc3)n2Cc2ccc3ccccc3c2)cc1 | CAKI-1 renal | -89.5% (active)
C=C1C(=O)O[C@H]2[C@H]1CC/C(COC(=O)NCCc1ccc(OC)c(OC)c1)=C\CC[C@@]1(C)O[C@@H]21 | CAKI-1 renal | 45.2% (inactive)
O=C1Nc2ccc(Br)cc2C12Oc1ccccc1C1CC(c3ccc(F)cc3)=NN12 (stereo unspecified) | CAKI-1 renal | 78.7% (inactive)
COc1ccc(/C=C/c2nc(-c3n[nH]c(=O)n3-c3ccccc3)c3ccccc3n2)cc1 | CAKI-1 renal | 84% (inactive)
NC(=NC1C2CC3CC(C2)CC1C3)Nc1ccc(I)cc1 (stereo unspecified) | CAKI-1 renal | 18% (inactive)
COc1ccc(/C=C\c2cc(OC)c(OC)c(OC)c2)cc1OC(=O)c1cccc(Cn2cc(CCOC(=O)[C@H](N)Cc3cn(C)c4ccccc34)nn2)c1 | CAKI-1 renal | 34.4% (inactive)
